B1: Caulobacter ParB omega fusion; a variant is named by its letters at X, in order, B8GW30 (parent)
chain: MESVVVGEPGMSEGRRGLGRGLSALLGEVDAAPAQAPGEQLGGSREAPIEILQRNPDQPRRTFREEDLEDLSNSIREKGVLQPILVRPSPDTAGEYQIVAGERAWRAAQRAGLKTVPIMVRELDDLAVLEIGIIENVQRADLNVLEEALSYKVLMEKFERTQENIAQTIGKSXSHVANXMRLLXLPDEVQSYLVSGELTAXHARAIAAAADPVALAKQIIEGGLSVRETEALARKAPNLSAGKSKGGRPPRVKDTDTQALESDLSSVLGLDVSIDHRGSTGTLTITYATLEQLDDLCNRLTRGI

- Variants of: B1
- Protocol description: one-hybrid fitness for binding parS DNA (scaled: cognate 1, non-cognate 0); higher = stronger binding
- Measurement conditions: with parS DNA site
In all, about 81,000 sequences were measured (“one-hybrid fitness for binding parS DNA”: median about -0.17, highest 2% from about 0.51 on). What follows is part of a selection rich in the highest values, with near analogues and random picks from the rest.
Field: one-hybrid fitness for binding parS DNA. Provide a value for each of the variants that follow.
One number for each entry.

I need one-hybrid fitness for binding parS DNA for every entry listed below, if you could help.
1. RSYN
2. RTDM
3. RMNS
4. RMNH

Reply:
[0.406, 0.289, 0.911, 0.287]

I need one-hybrid fitness for binding parS DNA for every entry listed below, if you could help.
1. RCNC
2. RSCC
3. RSYC
4. RSNC
5. RENC
6. RCCC
7. RSKM

Reply:
0.941
0.915
0.931
0.957
0.27
0.959
0.378
